Numbers sourced from ChEMBL document CHEMBL4689842.

# Test system: Fibroblast
# Assay: Multiplex assay against human fibroblast
# Type: toxicity, cell-based
# Condition set: 24 h, 10 µM, compound concentration 10 uM, replicate 1
Label T when Total Cell Count >= 200; otherwise F.

Solved entries:
[
  {
    "Compound structure string": "S=C(NCCCc1c[nH]cn1)NCCCN(Cc1ccc(Cl)c(Cl)c1)c1ccc(Br)cn1",
    "Class label": "F"
  },
  {
    "Compound structure string": "CCOc1cc(C(=O)N2CCC(N3CCN(C)CC3)CC2)ccc1Nc1ncc2c(n1)N(C1CCCC1)c1ccccc1C(=O)N2C",
    "Class label": "F"
  },
  {
    "Compound structure string": "NC(=O)c1cccc(-c2cc(Nc3ccc(OC(F)(F)F)cc3)ncn2)c1",
    "Class label": "T"
  }
]

Hi, just wondering whether COC(=N)c1nc2ccc3ncnc(Nc4ccc(OC)cc4F)c3c2s1 shows Total Cell Count of 200 or higher.
T

Check Cc1ccc2nc(NCCN)c3ncc(C)n3c2c1.O=C(O)C(F)(F)F.O=C(O)C(F)(F)F too.
T

One more compound: Cc1cn(-c2cc(NC(=O)c3ccc(C)c(Nc4nccc(-c5cccnc5)n4)c3)cc(C(F)(F)F)c2)cn1
T
